Measured values drawn from patent US10093630B2 for this set.

Give measured inhibition at 10 µM for each item. Keep answers brief.
SYSTEM_UNDER_TEST: MAGL (Mus musculus)
Construct: Proteomes (mouse brain membrane fraction or cell lysates); from tissue; host or cells: mouse brain membrane fraction (or cell lysates, not specified)
Sequence (O35678 whole entry): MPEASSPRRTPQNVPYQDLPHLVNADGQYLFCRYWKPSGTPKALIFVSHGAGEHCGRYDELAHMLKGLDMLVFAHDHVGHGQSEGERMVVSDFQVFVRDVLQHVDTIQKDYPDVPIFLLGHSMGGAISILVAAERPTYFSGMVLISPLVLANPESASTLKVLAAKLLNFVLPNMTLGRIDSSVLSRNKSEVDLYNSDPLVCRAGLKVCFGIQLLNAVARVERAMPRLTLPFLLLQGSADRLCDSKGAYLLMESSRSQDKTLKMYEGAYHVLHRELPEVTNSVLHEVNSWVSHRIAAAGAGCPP
MEASUREMENT_NOTES: In vitro competitive activity-based protein profiling (gel-based, FP-Rh or HT-01 probe)
Type: biochemical
TEST_SETTINGS: 10 μM inhibitor

For orientation, consider the following solved cases.
>>> df
                         structure_notation  reported_value
0  O=C(N1CCN(Cc2ccc(Cl)c(Cl)c2)CC1)n1cc(Cl)cn1           > 75%
1  O=C(c1cnn(C(=O)N2CCN(Cc3nccs3)CC2)c1)N1CCC1           < 25%
2  O=C(N1CCN(C(c2ccc(Cl)cc2)c2ccc(Cl)cc2)CC1)n1cc(-c2ccccc2)cn1           > 75%
3   O=C(c1ccccc1)N1CCN(C(=O)n2cc(Cl)cn2)CC1           > 75%

List reported inhibition at 10 µM for each of these molecules:
1. O=C(c1cnn(C(=O)N2CCN(Cc3ccncn3)CC2)c1)N1CCCC1
2. O=C(N1CCOCC1)n1cc(C(F)(F)F)cn1

### Response
1. < 25%
2. 25 to 75%
